// data source = patent US20250188057A1

target: glucosylceramide synthase (GCS) (Homo sapiens (Human)); assay: UDP-Glo glucosylceramide synthase biochemical assay; settings: endogenous GCS in Golgi preparations isolated from human A375 malignant melanoma skin cells; UDP detection by luminescence
Sequence (Q16739 whole entry): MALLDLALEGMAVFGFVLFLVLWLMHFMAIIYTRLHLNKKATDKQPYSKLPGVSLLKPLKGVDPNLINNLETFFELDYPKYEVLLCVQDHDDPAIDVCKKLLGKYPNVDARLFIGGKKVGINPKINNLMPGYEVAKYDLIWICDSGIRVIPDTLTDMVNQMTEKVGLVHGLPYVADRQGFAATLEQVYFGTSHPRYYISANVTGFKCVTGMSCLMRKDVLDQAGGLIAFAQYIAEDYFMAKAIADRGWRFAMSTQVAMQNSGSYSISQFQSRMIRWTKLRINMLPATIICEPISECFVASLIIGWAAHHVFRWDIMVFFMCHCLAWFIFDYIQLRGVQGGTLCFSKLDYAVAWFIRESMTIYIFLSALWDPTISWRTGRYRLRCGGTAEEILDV
RECORDED ENDPOINT: IC50 (nM)

Examples with their reported IC50 follow.
* N#Cc1cnc(C2CC2)nc1OC[C@H]1CCN(c2ccc(C(F)(F)F)nc2)C1 [Compound 44] | 140
* CC(F)(F)c1ccnc(N2CC[C@H](COc3nc(C4CC4)ncc3C#N)C2)c1 [Compound 32] | 3290
* N#Cc1ccccc1C1CCN(c2nc(C3CC3)ncc2C#N)C1 (centres unmarked) [Compound 87] | 218

1. N#Cc1cnc(C2CC2)nc1OCC1CCC(c2ccccc2)O1 (centres unmarked) [Compound 102]
2. CCNC(=O)[C@]12CN(c3nc(C4CC4)ncc3C#N)C[C@H]1C(Oc1ccccc1)=NO2 [Compound 77]
Could you tell me which of 1 and 2 has the lower IC50 reading? Response format: the label of the selected entry.
1
